The origin of these recorded values is paper PMC8921064.

# System: Salmonella typhimurium TA100
# RUN_DESCRIPTION: Reverse mutation assay (Ames test), TA100
# STATED_CONDITIONS: TA100; positive if more than twofold over control

STRUCTURE_STRING	Mutagenicity (conclusion)
Cc1ccc2ccc3ccccc3c2c1	non-mutagenic
Cc1ccc2c(ccc3ccccc32)c1	non-mutagenic

---

Exercise: for every item that follows, state its recorded Increase in the number of revertants compared to the concurrent solvent control.
# Tested on: Salmonella typhimurium TA98
# RUN_DESCRIPTION: Reverse mutation assay (Ames test), TA98
# STATED_CONDITIONS: TA98, presence of 5% S9-mix, 10–100 µg

Item Cc1ccc2ccc3ccccc3c2c1 was tested on Salmonella typhimurium TA98; the reported Increase in the number of revertants compared to the concurrent solvent control is 2.2 fold

Result for Cc1ccc2c(ccc3ccccc32)c1 , tested on Salmonella typhimurium TA98, Increase in the number of revertants compared to the concurrent solvent control: 2.2 fold

Assay Salmonella typhimurium TA98, sample Cc1cc2ccccc2c2ccccc12 , Increase in the number of revertants compared to the concurrent solvent control read: 2.5 fold

---

# System: Salmonella typhimurium TA98
# RUN_DESCRIPTION: Reverse mutation assay (Ames test), TA98
# STATED_CONDITIONS: TA98; positive if more than threefold over control
# Protocol: Six concentrations of each compound were tested in triplicate in the absence and presence of 5% (v/v) S9-mix prepared from the livers of Aroclor 1254 treated Sprague–Dawley rats. The S9-mix contained 4 mM NADP, 5.8 mM glucose-6-phosphate, 0.1 M sodium phosphate pH 7.4, 8 mM MgCl2, 33 mM KCl and 5% S9 homogenate. […] The number of revertant colonies per plate was automatically counted with the Instem Sorcerer Colony Counter (Staffordshire, UK). […]

STRUCTURE_STRING	Mutagenicity (conclusion)
Cc1ccc2c(ccc3ccccc32)c1	non-mutagenic
Cc1ccc2ccc3ccccc3c2c1	non-mutagenic

---

Assignment: determine reported Increase in the number of revertants compared to the concurrent solvent control for the given molecules.
# Tested on: Salmonella typhimurium TA100
# RUN_DESCRIPTION: Reverse mutation assay (Ames test), TA100
# STATED_CONDITIONS: TA100, presence of 5% S9-mix, 10–100 µg

The reported Increase in the number of revertants compared to the concurrent solvent control of the molecule Cc1cc2ccccc2c2ccccc12 was 1.9 fold

molecule Cc1cccc2c1ccc1ccccc12 , Increase in the number of revertants compared to the concurrent solvent control observed: ≤ 6.8 fold

---

# RUN_DESCRIPTION: Rat liver microsomal incubation, metabolite formation quantified by UPLC
# STATED_CONDITIONS: Sprague-Dawley, rat, microsomes, pH 7.4
RESULT_TYPE: microsomal CLint (µL/min/mg)
Give a bare numeral; the unit µL/min/mg is implied.

For reference, reported microsomal CLint for c1ccc2c(c1)ccc1ccccc12 [Phenanthrene] stands at 7.3
